Assay: xn = mol fraction of the nth substance listed, in the solute-free solvent
Settings: 298.15 K; x2 = 0.2307
Each record here notes measured solubility (g/100 g solution).
Enter a number only.

1) Nc1cccc2ccncc12 + CCCO + O = 0.964
2) Nc1cccc2ccncc12 + CC(C)O + O = 0.767
3) CN1CCC(N(Cc2cccs2)c2ccccc2)CC1 + CCCO + O = 1.73
4) Cc1ccc2cc(Br)ccc2n1 + CC(C)O + O = 0.769

Query compound follows.
**Q:** # get_value(readout='solubility (g/100 g solution)', item= CN1CCC(N(Cc2cccs2)c2ccccc2)CC1 + CC(C)O + O )
**A:** 1.4
